FYI, the data here is from ChEMBL document CHEMBL4002602.

measurement_notes: AUC (0 to t) in Wistar rat at 10 mg/kg administered via oral gavage by LC/MS/MS analysis
Assay type: ADME, organism-based
assay_setup: in vivo
Strictly below 6 µM·h in AUC(0-t): Condition met. Otherwise: Condition not met.

Look over these answered cases.
compound=COc1ccc(N2CCOCC2)c2sc(NC(=O)C(C)(C)Oc3ccc(F)cc3)nc12 assigned_category="Condition met"
compound=COc1ccc(N2CCOCC2)c2sc(NC(=O)C(C)(C)Oc3ccc(F)c(F)c3)nc12 assigned_category="Condition not met"
compound=COc1cnc(N2CCOCC2)c2sc(NC(=O)C(C)(C)Oc3ccc(F)cc3)nc12 assigned_category="Condition not met"
compound="COc1ccc(N2CCOCC2)c2sc(NC(=O)C3(C)CCC(C)(O)CC3)nc12 (stereo not given)" assigned_category="Condition not met"

Okay, now this compound:
Query: Regarding CCN(CC)C1CCC(C)(C(=O)Nc2nc3c(OC)ccc(N4CCOCC4)c3s2)CC1 (stereo not given) , kindly confirm whether its AUC(0-t) is beneath 6 µM·h.
Response: Condition met
